All values here come from PubChem BioAssay AID2060353.

Quick reference: viability, T/C of the listed items.
system: 521955-158-R2-J5-PDC spheroids with stroma, growth inhibition; test: Anticancer human tumor 521955-158-R2-J5-PDC patient-derived pancreatic carcinoma cell line growth inhibition [TAK]; settings: second compound 0.3 µM; first compound 0.01 µM; hits give low values

Give the measured viability, T/C of COC1CC2CCC(C)C(O)(O2)C(=O)C(=O)N2CCCCC2C(=O)OC(C(C)CC2CCC(OCCO)C(OC)C2)CC(=O)C(C)C=C(C)C(O)C(OC)C(=O)C(C)CC(C)C=CC=CC=C1C (stereo not given) + CC(C)NCC(C(=O)N1CCN(c2ncnc3c2C(C)CC3O)CC1)c1ccc(Cl)cc1 .
76%

Give the measured viability, T/C of CC(C)CC(NC(=O)CNC(=O)c1cc(Cl)ccc1Cl)B1OC(=O)CC(CC(=O)O)(C(=O)O)O1 (stereo not given) + CC(C)NCC(C(=O)N1CCN(c2ncnc3c2C(C)CC3O)CC1)c1ccc(Cl)cc1 .
116%

Give the measured viability, T/C of COc1c(OCCCN2CCOCC2)ccc2c3n(c(=NC(=O)c4cnc(N)nc4)nc12)CCN3 + CC(C)NCC(C(=O)N1CCN(c2ncnc3c2C(C)CC3O)CC1)c1ccc(Cl)cc1 .
60.2%

Give the measured viability, T/C of CC(C)CC(NC(=O)C(Cc1ccccc1)NC(=O)c1cnccn1)B(O)O (stereo not given) + CC(C)NCC(C(=O)N1CCN(c2ncnc3c2C(C)CC3O)CC1)c1ccc(Cl)cc1 .
7.88%

Next:
Give the measured viability, T/C of CC(C)n1nc(-c2ccc3oc(N)nc3c2)c2c(N)ncnc21 + CC(C)NCC(C(=O)N1CCN(c2ncnc3c2C(C)CC3O)CC1)c1ccc(Cl)cc1 .
60.4%

----------
system: 521955-158-R2-J5-PDC spheroids with stroma, growth inhibition; experiment: Anticancer human tumor 521955-158-R2-J5-PDC cell line growth inhibition [TAK]; details: second compound 0.949 µM; first compound 0.000316 µM; hits give low values;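 further: spheroids exposed to drugs for seven days before readout; 100% = DMSO vehicle control viability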
Quick reference: viability, T/C of the listed items.
Kindly provide the numeric value in % only, without the unit symbol.

Give the measured viability, T/C of CC(C)CC(NC(=O)C(Cc1ccccc1)NC(=O)c1cnccn1)B(O)O (centres undefined) + CC(C)NCC(C(=O)N1CCN(c2ncnc3c2C(C)CC3O)CC1)c1ccc(Cl)cc1 .
78.1

Give the measured viability, T/C of CC(C)CC(NC(=O)CNC(=O)c1cc(Cl)ccc1Cl)B1OC(=O)CC(CC(=O)O)(C(=O)O)O1 (centres undefined) + CC(C)NCC(C(=O)N1CCN(c2ncnc3c2C(C)CC3O)CC1)c1ccc(Cl)cc1 .
85.2

Next:
Give the measured viability, T/C of CC(C)n1nc(-c2ccc3oc(N)nc3c2)c2c(N)ncnc21 + CC(C)NCC(C(=O)N1CCN(c2ncnc3c2C(C)CC3O)CC1)c1ccc(Cl)cc1 .
78.3

Give the measured viability, T/C of COC1CC2CCC(C)C(O)(O2)C(=O)C(=O)N2CCCCC2C(=O)OC(C(C)CC2CCC(OCCO)C(OC)C2)CC(=O)C(C)C=C(C)C(O)C(OC)C(=O)C(C)CC(C)C=CC=CC=C1C (centres undefined) + CC(C)NCC(C(=O)N1CCN(c2ncnc3c2C(C)CC3O)CC1)c1ccc(Cl)cc1 .
79.4
